Tested on: MS2 coat protein
test-summary: apparent KD of MS2 coat protein; higher = weaker reporter binding
study-conditions: Eterna round: R107; input ligand: theophylline 2 mM
measurement-kind: apparent KD of MS2 coat protein

>>> test_value("ACGCGCUGGGCGGCCGCCACUCACCUGCCGUGGACAUUUCGAGGUCACAUGAGGAUCACCCAUGUGAGGACCGGGCCCUGUAGGC [theeternabot_exclusion_MS2_Trp_B_37]")
"12.7 nM"
>>> test_value("UGACAUGAGGAUCACCCAUGUAUAACUGAAGGAGCGUCCAUAAGGACAGGUAGGUCGCGGAAUGAACAGAGUGCACGACAUGUUU [Arg A SS t1]")
"14.3 nM"
>>> test_value("UCAGUGCAGGGAAGGAGCGGGUACAUGAGGAUCACCCAUGUGCAAGUGGUGAGCGUCCGUGCCCAGGUAGGUCGCCCAGCCUGGU [Atarteedon]")
"198 nM"
>>> test_value("UGUUUGGUGCGCGAGUGUUGGAUAAUUGAUACCAGUGAAGAAGAGCGCCCUUGGCAGCGAAUCCUAACAUGAGGAUCACCCAUGU [5.U]")
"51.7 nM"
>>> test_value("UUAUUUAACGGAAGGAGCGCGGAUAAAAUAGUGGGUAAACAUGAGGAUCACCCAUGUAAACCGCAGGUAGGUCGCCGAUAUUUAU [AstrosEXyARgB#5]")
"33.2 nM"
>>> test_value("UGUCAGCGAAAGUUGACAUGUCUUGCUGGUCGAGGACCGGUACGGCCGCCACUCGAUCUCUCGCACAUGAGGAUCACCCAUGUUG [SS Tryp A #23]")
"13.9 nM"
>>> test_value("UUGGGUUUGUGAAGGAGCGGGAAAUAUAUAUAUAUAAUCCUAACAUGAGGAUCACCCAUGUCCCAGGUAGGUCGCGCGGGUUUGG [12.N]")
"65.5 nM"
>>> test_value("UCGCUCUGGGUGAGAUCCGGAGAUAUGGAAGGAGCGCUGAUUCCAGCAGGUAGGUCGCCAACGGACAUGAGGAUCACCCAUGUAC [Same State - Arginine A (Freestyle 11)]")
"55.5 nM"

So for GCUAGGUCAUCGGCCGCCACUAACGAAGGUUCGAACAUGAGGAUCACCCAUGUGCCACAUGCGCAUAGGACCGGGAUGACCUAGC [SSTB NP+V+V2 #7 +-Same Structure] , the logged apparent KD of MS2 coat protein turned out to be 20.8 nM

So for GGUCGCCAACAUGGGUGGGUGACCCUGGAAGGAGCGAGCGAGAGCUCAGGUAGGUCGCCAGAACAUGAGGAUCACCCAUGUAAUA [(A)''-(M)'-(A)'(Arg1)-(Arg2)-(M1)-(M2)_Design14] , the logged apparent KD of MS2 coat protein turned out to be 139 nM

So for GGUGGCUGGACUGAUACCAGCCACCACCGAUAGACCACAUGAGGAUCACCCAUGUUGGGUGGCCCUUGGCAGCAGUCCAGCUGCC [#1 Same State - Theophylline B Attempt #10 (HarryS)] , the logged apparent KD of MS2 coat protein turned out to be 2990 nM
